molecular target: human TSPO (Homo sapiens, UniProt P30536); construct: aliquots of U87MG cell membranes (20 μg of proteins) were incubated with [^3H]PK 11195 (1.5 nM); endogenous in cells; experiment: TSPO association/dissociation and competition kinetics with [3H]PK11195; settings: calculated as ratio of estimated koff and kon
Sequence (P30536 whole entry): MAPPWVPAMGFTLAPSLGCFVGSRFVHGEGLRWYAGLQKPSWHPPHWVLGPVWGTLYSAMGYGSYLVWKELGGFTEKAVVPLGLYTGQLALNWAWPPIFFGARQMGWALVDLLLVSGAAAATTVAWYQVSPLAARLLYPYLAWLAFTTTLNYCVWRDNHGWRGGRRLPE

Molecule	Kd / nM
CCOC(=O)[C@@H](Cc1ccccc1)NC(=O)[C@H](CC(C)C)NC(=O)C(=O)c1c(-c2ccccc2)[nH]c2ccccc12 [EB54]	134
CCOC(=O)[C@@H](Cc1ccccc1)NC(=O)[C@H](CC(C)C)NC(=O)C(=O)c1c(-c2ccccc2)[nH]c2ccc(N=C=S)cc12 [EB148]	150

* * *

target: MDM2/p53 complex (Homo sapiens, UniProt Q00987); construct: endogenous in cells; assay: Dissociation of native MDM2/p53 complex, sandwich immuno-enzymatic assay on U87MG cell lysates
Sequence (Q00987 whole entry, one chain of several): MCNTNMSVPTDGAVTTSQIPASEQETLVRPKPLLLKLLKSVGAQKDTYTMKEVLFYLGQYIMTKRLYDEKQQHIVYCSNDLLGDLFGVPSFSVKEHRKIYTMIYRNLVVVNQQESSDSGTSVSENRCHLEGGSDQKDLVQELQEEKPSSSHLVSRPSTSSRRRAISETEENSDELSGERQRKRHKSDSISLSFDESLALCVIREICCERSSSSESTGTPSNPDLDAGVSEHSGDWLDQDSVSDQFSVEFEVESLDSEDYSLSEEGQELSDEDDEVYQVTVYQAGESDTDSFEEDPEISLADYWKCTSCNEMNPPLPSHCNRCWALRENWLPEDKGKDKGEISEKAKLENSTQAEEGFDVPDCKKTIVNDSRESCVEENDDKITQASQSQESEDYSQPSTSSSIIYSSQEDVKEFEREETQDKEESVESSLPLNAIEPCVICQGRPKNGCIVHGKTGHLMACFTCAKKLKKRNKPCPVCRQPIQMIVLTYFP

Compound	IC50 / nM
CCOC(=O)[C@@H](Cc1ccccc1)NC(=O)[C@H](CC(C)C)NC(=O)C(=O)c1c(-c2ccccc2)[nH]c2ccc(N=C=S)cc12 [EB148]	6.81
